Quick reference for melting point among some compounds

# count of solved cases: 5
O=C1Nc2ccccc2N(C(=O)CN2CCCCC2CN2CCOCC2)c2ccccc21 (stereo not given) | 194 to 195 °C
COc1cc(OC)nc(-n2ncn(N)c2=O)n1 | 238 °C
O=C(c1ccccc1)N1CCN(CC(O)Cn2c3ccccc3c3ccccc32)CC1 (stereo not given) | 153 °C
CCOC(=O)c1ccc(CCNS(=O)(=O)C=Cc2ccccc2)cc1 | 59 to 61 °C
NC1CCc2cc(Cl)ccc2NC1=O (stereo not given) | 170 to 171 °C

Quick check: melting point of COC(=O)c1cc(-c2ccc(OCc3ccccc3)cc2)c(=O)n2ccc3ccsc3c12 ?
169 to 171 °C

Quick check: melting point of O=C(c1ccccc1)N1Cc2c(-c3noc(C4CC4)n3)ncn2-c2ccccc21 ?
198 to 199 °C
